Target protein (sequence): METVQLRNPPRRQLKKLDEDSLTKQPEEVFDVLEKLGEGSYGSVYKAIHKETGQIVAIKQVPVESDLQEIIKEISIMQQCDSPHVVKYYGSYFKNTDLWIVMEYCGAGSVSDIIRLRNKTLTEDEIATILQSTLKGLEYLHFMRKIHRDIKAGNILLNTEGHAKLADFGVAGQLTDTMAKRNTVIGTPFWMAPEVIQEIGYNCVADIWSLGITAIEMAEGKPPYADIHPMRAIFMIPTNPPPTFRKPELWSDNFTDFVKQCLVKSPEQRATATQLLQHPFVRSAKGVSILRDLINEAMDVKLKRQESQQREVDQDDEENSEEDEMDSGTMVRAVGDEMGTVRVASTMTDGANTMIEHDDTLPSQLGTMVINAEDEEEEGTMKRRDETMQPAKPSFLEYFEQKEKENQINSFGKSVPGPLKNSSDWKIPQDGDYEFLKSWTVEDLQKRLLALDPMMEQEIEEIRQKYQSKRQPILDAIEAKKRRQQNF
pKi: −log10 of the molar value.
Measurement Type: pKi

1) Cc1cnc(N[C@H]2CC[C@H](N)CC2)nc1-c1cnc2ccc(-c3ccccc3)cn12 [CDDD11-8] = 8.05
